Assay Remarks: Solubility of peptides in sodium acetate-imidazole buffer
Format: physicochemical
Parameters: key: Soluble: totally soluble; Cloudy: cloudy: no totally soluble
Cond: 0.2 wt.% in 10 mM sodium acetate - 10 mM imidazole buffer (pH 7); shaken 2 h at 50 °C and overnight at room temperature; visual
No end group written: not given here.
Readout Type: Solubility of peptides

FDVIGGTSTGGLLTAMITTPNENNRP [γ-36] :: Soluble
DSPETYEEALKRFAKLLSD [α-12] :: Soluble
GKELDPRLSYRI [β-26] :: Soluble
KKPVSKDSPETYEEALKRFAKLLSDRKKL [α-10] :: Soluble
NRPFAAAKDIVPFYFEHGPHIFN [α-13] :: Soluble
LNIQFNI [β-24] :: Cloudy

(Q) Look at this substance and give its reported Solubility of peptides. DTNGKELNPNSSYRIISIGRGALGGDVYL [γ-42]
(A) Cloudy

Where do the numbers come from? From paper PMC6971092.
